target: Metabotropic glutamate receptor 4 (Rattus norvegicus, UniProt P31423); test: Positive allosteric modulation of rat mGluR4 expressed in CHO-K1 cells
Sequence (P31423 whole entry): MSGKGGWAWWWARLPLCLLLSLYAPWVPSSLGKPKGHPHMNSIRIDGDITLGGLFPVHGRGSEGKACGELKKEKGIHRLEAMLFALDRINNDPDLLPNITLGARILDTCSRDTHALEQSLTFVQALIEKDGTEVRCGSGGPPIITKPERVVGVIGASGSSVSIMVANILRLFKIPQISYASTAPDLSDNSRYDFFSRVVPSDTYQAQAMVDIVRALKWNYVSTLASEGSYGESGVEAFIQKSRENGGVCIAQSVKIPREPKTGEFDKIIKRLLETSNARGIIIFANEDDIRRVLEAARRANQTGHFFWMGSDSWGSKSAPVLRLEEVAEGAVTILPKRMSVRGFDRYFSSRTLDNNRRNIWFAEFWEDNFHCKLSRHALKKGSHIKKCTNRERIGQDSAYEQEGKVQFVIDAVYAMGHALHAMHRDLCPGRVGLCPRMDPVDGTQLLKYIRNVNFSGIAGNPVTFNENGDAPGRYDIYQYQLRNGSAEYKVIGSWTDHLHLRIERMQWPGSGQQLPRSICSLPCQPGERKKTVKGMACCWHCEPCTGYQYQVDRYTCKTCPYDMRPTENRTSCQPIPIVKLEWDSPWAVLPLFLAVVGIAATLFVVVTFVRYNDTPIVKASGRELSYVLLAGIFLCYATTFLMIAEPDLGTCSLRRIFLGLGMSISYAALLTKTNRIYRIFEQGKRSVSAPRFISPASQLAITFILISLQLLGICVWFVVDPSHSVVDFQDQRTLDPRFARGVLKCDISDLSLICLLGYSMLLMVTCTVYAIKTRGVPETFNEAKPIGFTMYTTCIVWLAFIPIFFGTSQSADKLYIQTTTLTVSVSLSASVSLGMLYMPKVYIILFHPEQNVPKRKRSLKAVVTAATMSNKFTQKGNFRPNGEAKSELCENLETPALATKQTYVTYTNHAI
MEASURED PROPERTY: EC50

Record summary for Nc1nccc(/C=C/c2ccccc2)n1 : reported EC50 = 1 µM

====

target: Metabotropic glutamate receptor 4 (Homo sapiens, UniProt Q14833); experiment: Positive allosteric modulation of human mGluR4 expressed in CHO-K1 cells assessed as decrease in forskolin-induced intracellular cAMP accumulation after 1 hr by fluorescence assay; format: functional, cell-based
Sequence (Q14833 whole entry): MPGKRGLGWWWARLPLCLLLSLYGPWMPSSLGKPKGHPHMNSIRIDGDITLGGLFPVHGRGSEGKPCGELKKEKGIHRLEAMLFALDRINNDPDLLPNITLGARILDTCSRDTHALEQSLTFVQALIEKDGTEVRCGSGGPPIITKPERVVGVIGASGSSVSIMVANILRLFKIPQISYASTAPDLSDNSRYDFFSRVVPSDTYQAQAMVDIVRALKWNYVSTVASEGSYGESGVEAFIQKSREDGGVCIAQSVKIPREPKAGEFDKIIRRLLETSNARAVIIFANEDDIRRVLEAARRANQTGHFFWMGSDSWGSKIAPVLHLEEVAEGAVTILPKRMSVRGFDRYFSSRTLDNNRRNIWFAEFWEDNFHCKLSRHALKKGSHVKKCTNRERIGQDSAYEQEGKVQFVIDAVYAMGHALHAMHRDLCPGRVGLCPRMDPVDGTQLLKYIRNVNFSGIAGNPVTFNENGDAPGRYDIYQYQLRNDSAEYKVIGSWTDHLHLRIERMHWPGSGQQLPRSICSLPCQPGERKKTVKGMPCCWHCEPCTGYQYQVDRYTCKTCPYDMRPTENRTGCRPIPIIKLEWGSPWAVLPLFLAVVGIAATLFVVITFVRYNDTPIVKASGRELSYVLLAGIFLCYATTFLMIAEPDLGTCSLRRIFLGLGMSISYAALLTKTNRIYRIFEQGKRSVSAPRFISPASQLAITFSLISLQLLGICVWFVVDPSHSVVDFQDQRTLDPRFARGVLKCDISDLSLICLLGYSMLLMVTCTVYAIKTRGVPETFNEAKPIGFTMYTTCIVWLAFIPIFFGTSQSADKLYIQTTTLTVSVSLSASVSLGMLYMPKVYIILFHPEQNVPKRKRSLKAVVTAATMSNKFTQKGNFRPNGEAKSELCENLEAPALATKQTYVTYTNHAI
MEASURED PROPERTY: EC50

These recorded examples may help you get a feel for the data.
{"TEST SMILES": "CN(C)c1nccc(/C=C/c2ccccc2)n1", "MEASURED PROPERTY": "EC50", "VALUE": "> 30 µM"}
{"TEST SMILES": "N#Cc1ccccc1/C=C/c1ccnc(N)n1", "MEASURED PROPERTY": "EC50", "VALUE": "> 30 µM"}

Lab note: molecule CNc1nccc(/C=C/c2ccccc2)n1 tested on Metabotropic glutamate receptor 4 (Homo sapiens, UniProt Q14833); recorded EC50 was > 30 µM
